The values you see were collected from patent US20260364184A1.

# Test system: Human myeloid monocytic leukemia cell line (MV-4-11)
# Assay text: Inhibition of MV-4-11 cell proliferation (CellTiter luminescent viability)
# Format: cell-based
# Setup conditions: Table IE1, CDK4/6 inhibitor-based; MV-4-11, 96 hours; read-out: Inhibitory activity (IC50, nM) on tumor cell proliferation, MV-4-11
Some compounds, each annotated with its measured IC50.
Value type: IC50

                                   compound   reported_result
0  Cc1nc2c(F)cc(-c3nc(Nc4ccc(N5CCC(N(C)CC6CCN(c7ccc8c(c7)C(=O)N(N7CCC(=O)NC7=O)C8=O)CC6)CC5)cn4)ncc3F)cc2n1C(C)C       10 to 50 nM
1  CC(=O)c1c(C)c2cnc(Nc3ccc(N4CCNCC4)cn3)nc2n(C2CCCC2)c1=O [Palbociclib, reference compound]     300 to 400 nM
2  Cc1nc2c(F)cc(-c3nc(Nc4ccc(N5CCN(Cc6ccc7c(c6)CN(N6CCC(=O)NC6=O)C7=O)CC5)cn4)ncc3F)cc2n1C(C)C       10 to 50 nM
3  Cc1nc2c(F)cc(-c3nc(Nc4ccc(N5CCC(N(C)CC6CCN(c7cccc8c7C(=O)N(N7CCC(=O)NC7=O)C8=O)CC6)CC5)cn4)ncc3F)cc2n1C(C)C      50 to 100 nM
4  Cc1nc2c(F)cc(-c3nc(Nc4ccc(N5CCC(N6CCN(Cc7ccc8c(c7)CN(N7CCC(=O)NC7=O)C8=O)CC6)CC5)cn4)ncc3F)cc2n1C(C)C       10 to 50 nM
5  Cc1nc2c(F)cc(-c3nc(Nc4ccc(CN5CCN(CC6CCN(c7cccc8c7C(=O)N(N7CCC(=O)NC7=O)C8=O)CC6)CC5)cn4)ncc3F)cc2n1C(C)C       10 to 50 nM
6  CN(C)C(=O)c1cc2cnc(Nc3ccc(N4CCNCC4)cn3)nc2n1C1CCCC1 [Ribociclib, reference compound]  5000 to 10000 nM
7  Cc1nc2c(F)cc(-c3nc(Nc4ccc(N5CCC(N6CCN(Cc7ccc8c(c7)C(=O)N(N7CCC(=O)NC7=O)C8=O)CC6)CC5)cn4)ncc3F)cc2n1C(C)C     300 to 400 nM
8  Cc1nc2c(F)cc(-c3nc(Nc4ccc(N5CCC(N(C)Cc6ccc7c(c6)CN(N6CCC(=O)NC6=O)C7=O)CC5)cn4)ncc3F)cc2n1C(C)C       10 to 50 nM
